# experimentSummary: In vivo pharmacokinetic analysis, single dose, ICR mice
# testContext: mouse, male, plasma, IV Administration (2 mg/kg), single dose
Exercise: for every item that follows, state its recorded AUC(0-inf).
One number for each entry, in ng·h/mL.

For each of the compounds below, state AUC(0-inf).
1. c1nc2c(Nc3ccc(N4CCOCC4)cc3)nc(-c3ccc4cc[nH]c4c3)cn2n1
2. COc1cc(Nc2nc(-c3ccc4cc[nH]c4c3)cn3ncnc23)ccc1N1CCN(C2COC2)CC1
3. COc1cc(Nc2nc(-c3ccc4cc[nH]c4c3)cn3ncnc23)ccc1N1CCOCC1

// result
1. 11400
2. 1680
3. 1010

Data origin, for the record: patent US12577248B2
